Entries and their Activity
Test system: CEM-SS
Experiment: Cytotoxicity against human CEM-SS cells assessed as cell viability at 10 uM after 6 days by MTS assay relative to control
Assay type: cell-based
Details: 144 h

{"columns": ["chem-smiles", "units-label", "Activity"],
 "data": [
  ["Cc1cn([C@H]2C[C@H](n3nncc3-c3ccc4[nH]ccc4c3)[C@@H](CO)O2)c(=O)[nH]c1=O", "%", 82],
  ["Cc1cn([C@H]2C[C@H](n3cc(C4CC4)nn3)[C@@H](CO)O2)c(=O)[nH]c1=O", "%", 100],
  ["Cc1cn([C@H]2C[C@H](n3cc(COc4cccc5ccccc45)nn3)[C@@H](CO)O2)c(=O)[nH]c1=O", "%", 100],
  ["Cc1cn([C@H]2C[C@H](n3nncc3CO)[C@@H](CO)O2)c(=O)[nH]c1=O", "%", 100]
]}
